Biological target: T1, human CD40 on cells (human, UniProt P25942 21-277)
T1 construct: whole, on cells; The cell line used is named in each row's assay; also called hCD40; TNFRSF5
T1 sequence (P25942 21-277): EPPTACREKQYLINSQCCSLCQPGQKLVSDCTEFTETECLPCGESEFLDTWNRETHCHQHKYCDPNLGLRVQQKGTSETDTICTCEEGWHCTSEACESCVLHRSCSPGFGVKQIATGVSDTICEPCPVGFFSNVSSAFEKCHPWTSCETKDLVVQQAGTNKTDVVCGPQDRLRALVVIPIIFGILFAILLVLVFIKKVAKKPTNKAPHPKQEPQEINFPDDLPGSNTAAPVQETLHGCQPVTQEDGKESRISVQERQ
Test: FACS, CHO-K1/hCD40 cells
Range-based classes on measured EC50: b0 (below 5 nM), b1 (5 nM to below 6 nM), b2 (6 nM or more)

# Binder, Label value
records = [
    ("PR006492 (antibody, human IgG1, kappa, V domains shown, PR003379 variant L:N92E; human IgG1 L234A, L235A, G237A) VH: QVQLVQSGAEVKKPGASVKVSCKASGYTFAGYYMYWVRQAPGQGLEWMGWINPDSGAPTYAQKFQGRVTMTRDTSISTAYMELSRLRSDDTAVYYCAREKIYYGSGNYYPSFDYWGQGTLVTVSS VL: DIQLTQSPSFLSASVGDRVTITCRASQGISSYLAWYQQKPGKAPKLLIYAASTLQSGVPSRFSGSGSGTEFTLTISSLQPEDFATYYCQQLESYPWTFGQGTKVEIKR", "b2"),
    ("PR006499 (antibody, human IgG1, kappa, V domains shown, PR003379 variant L:N92W; human IgG1 L234A, L235A, G237A) VH: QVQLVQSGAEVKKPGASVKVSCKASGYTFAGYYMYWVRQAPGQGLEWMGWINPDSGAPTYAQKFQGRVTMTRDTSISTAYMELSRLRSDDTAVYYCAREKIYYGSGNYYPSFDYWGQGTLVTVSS VL: DIQLTQSPSFLSASVGDRVTITCRASQGISSYLAWYQQKPGKAPKLLIYAASTLQSGVPSRFSGSGSGTEFTLTISSLQPEDFATYYCQQLWSYPWTFGQGTKVEIKR", "b0"),
    ("PR006509 (antibody, human IgG1, kappa, V domains shown, PR003379 variant L:S93L; human IgG1 L234A, L235A, G237A) VH: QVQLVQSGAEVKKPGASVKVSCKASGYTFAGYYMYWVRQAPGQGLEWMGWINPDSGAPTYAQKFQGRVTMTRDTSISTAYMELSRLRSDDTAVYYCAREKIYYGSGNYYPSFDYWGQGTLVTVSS VL: DIQLTQSPSFLSASVGDRVTITCRASQGISSYLAWYQQKPGKAPKLLIYAASTLQSGVPSRFSGSGSGTEFTLTISSLQPEDFATYYCQQLNLYPWTFGQGTKVEIKR", "b1"),
    ("PR001306 (CDX-1140) (antibody, human IgG2, kappa, V domains shown, CD40 positive control antibody) VH: QVQLVESGGGVVQPGKSLRLSCAASGFTFSSNGIHWVRQAPGKGLEWVAVIWSDGSNKFYADSVKGRFTISRDNSKNTLYLQMNSLRAEDTAVYYCARASGSGSYYNFFDYWGQGTLVTVSS VL: EIVMTQSPATLSVSPGERATLSCRASQSVRSNLAWYQQKPGQAPRLLIYGASTRATGIPARFSGSGSGTEFTLTINSLQSEDFAVYYCQQHNKWITFGQGTRLEIKR", "b2"),
    ("PR006507 (antibody, human IgG1, kappa, V domains shown, PR003379 variant L:S93E; human IgG1 L234A, L235A, G237A) VH: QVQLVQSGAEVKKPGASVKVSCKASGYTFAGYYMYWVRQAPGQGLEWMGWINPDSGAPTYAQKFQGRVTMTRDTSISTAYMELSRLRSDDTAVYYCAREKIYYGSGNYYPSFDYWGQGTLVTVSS VL: DIQLTQSPSFLSASVGDRVTITCRASQGISSYLAWYQQKPGKAPKLLIYAASTLQSGVPSRFSGSGSGTEFTLTISSLQPEDFATYYCQQLNEYPWTFGQGTKVEIKR", "b1"),
    ("PR006496 (antibody, human IgG1, kappa, V domains shown, PR003379 variant L:N92F; human IgG1 L234A, L235A, G237A) VH: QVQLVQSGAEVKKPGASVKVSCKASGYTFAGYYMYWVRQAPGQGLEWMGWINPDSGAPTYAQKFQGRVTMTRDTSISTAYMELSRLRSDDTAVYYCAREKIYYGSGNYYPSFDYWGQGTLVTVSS VL: DIQLTQSPSFLSASVGDRVTITCRASQGISSYLAWYQQKPGKAPKLLIYAASTLQSGVPSRFSGSGSGTEFTLTISSLQPEDFATYYCQQLFSYPWTFGQGTKVEIKR", "b0"),
]
